assay: log P determination by HPLC on reversed-phase columns (C 18), analogously to OECD Guideline 117; type: physicochemical; conditions: reversed-phase C18 HPLC column; acidic range, pH 2.7, 0.1% aqueous formic acid and acetonitrile; read-out: log P[a] / log P(HCOOH)

compound	chromatographic logP
Cn1c(=O)[nH]n(C2CCCC2)c1=O [drawing 120 R1=cyclopentyl R10=CH3]	0.78
COc1ccc(B(O)O)cc1SCC(F)(F)F [VIIIa-8]	1.94
[O-][S+](CC(F)(F)F)c1cc(B(O)O)c(Cl)cc1Cl (stereo not drawn) [VIIIb-6]	1.86

---

experiment: log P determination by HPLC on reversed-phase columns (C 18), analogously to OECD Guideline 117; type: physicochemical; settings: LC-MS in the acidic range, pH 2.7, 0.1% aqueous formic acid / acetonitrile, HPLC reversed-phase C 18
// returns 0.0 unless logP (HCOOH) is strictly below 3, in which case 1.0

compound	label_value
Cc1cc(F)c(N2C(=O)CN(Cc3ccccc3)C2=O)cc1[S+]([O-])CC(F)(F)F (centres unmarked)	1.0
Cc1cc(F)c(-n2[nH]c(=O)n(-c3cccc(Cl)c3)c2=O)cc1SCC(F)(F)F	0.0
CCn1c(=O)n(C(C)C)c(=O)n1-c1cc([S+]([O-])CC(F)(F)F)c(C)cc1F (centres unmarked)	1.0
Cc1cc(F)c(N2C(=O)CN(C)C2=O)cc1SCC(F)(F)F	1.0
C=CCn1c(=O)n(CC(F)(F)F)n(-c2cc(SCC(F)(F)F)c(C)cc2F)c1=O	0.0
CCC(C)n1c(=O)n(C2CC2)c(=O)n1-c1cc([S+]([O-])CC(F)(F)F)c(C)cc1F (centres unmarked)	1.0
